experimental-details: Primary qHTS for delayed death inhibitors of the malarial parasite plastid, 96 hour incubation
experimental-parameters: P. falciparum luciferase reporter growth; series mostly up to 28.7 µM
The campaign covered roughly 320,000 compounds. About 22,000 (6.9%) were called active. Not shown: some 27% with an inconclusive outcome. Calls follow the shape of the dose curve; as a rule, active = well fitted inhibition curve with a large enough effect; inconclusive = small, poorly fitted or top-dose-only effect, or another doubt; inactive = no such curve, though single readings can be large or run the other way. The entries come from a sample that favours actives as a whole.
API: response.call in YES (active), NO (inactive)

{"columns": ["compound", "label"],
 "data": [
  ["N#Cc1ccccc1-n1c(N)c(C(=O)N2CCCC2)sc1=S", "YES"],
  ["Cc1ccccc1Nc1c([N+](=O)[O-])ccc2nonc12", "NO"],
  ["CC(=O)NC1C(OCc2ccccc2)OC(COC(C)=O)C(OC(C)=O)C1OC(C)=O (configuration not stated)", "NO"],
  ["Cc1cccc(-n2c(N)c(C(=O)N3CCN(C)CC3)sc2=S)c1", "NO"],
  ["COC(=O)c1ccc2ccccc2c1OC1OC(CO)C(O)C(O)C1NC(C)=O (configuration not stated)", "YES"],
  ["COc1ccc(CCOC(=O)CNC(=O)c2ccc(Cl)cc2Cl)cc1", "NO"]
]}

Turning now to a further record.
Give the logged outcome of this assay for the following compound: c1ccc(-c2ccc(OCCN3CCOCC3)cc2)cc1
NO

Values from PubChem BioAssay AID504834
